Test system: HOP-62 NSCLC
Assay: NCI-60 one-dose screen, 48 h
Settings: 10 µM unless noted
Description: Growth inhibition of the HOP-62 human Non-Small Cell Lung tumor cell line is measured as a screen for anti-cancer activity. Cells are grown in 96 well plates and exposed to the test compound for 48 hours. Compounds are tested at a single concentration, which is 10^-5 M for most compounds. The reported endpoint is percent growth (GI% or GIPRCNT), where numbers from 0 - 100% represent growth inhibition, and numbers from -100% - 0 represent cell death. […]
The panel holds about 83,000 compounds, 20% with a hit somewhere; the sample as a whole holds those more often. The source made the active and inactive calls. How the source made its calls: active means growth percent below 10; inactive means the rest.
Classes used: 1 (yes) = active, 0 (no) = inactive

INSERT INTO measurements (compound, class_name) VALUES
  ('Cc1cccc(NC2=C(Cl)C(=O)c3nc(C)ccc3C2=O)c1', '0 (no)'),
  ('O=C1NC(=O)C(c2ccccc2)(c2ccccc2)N1Cc1cn(-c2c3ccccc3nc3ccccc23)nn1', '0 (no)'),
  ('O=C1CCC/C=C\C[C@H]2C=CC(=O)/C2=C/C[C@H](CCc2cccc(C(F)(F)F)c2)O1', '1 (yes)'),
  ('CCCCCCCCCCCCCCCCCC1OCC(COC(=O)O[C@]2(CC)C(=O)OCc3c2cc2n(c3=O)Cc3cc4ccccc4nc3-2)O1 (some centres undefined)', '0 (no)'),
  ('Cn1cc(-c2ccc3cc(-c4ccc(CC(=O)Nc5cc(C(C)(C)C)nn5C)cc4)cnc3c2)cn1', '0 (no)'),
  ('C#Cc1cccc(NC(=O)c2ccc(NC(=O)C=C)cc2)c1', '0 (no)'),
  ('CCOC(=O)C1=C(N)Oc2c(sc3c(C)cccc23)C1c1ccc(F)cc1 (centres undefined)', '0 (no)'),
  ('O=C1/C(=C/c2ccc(F)cc2)Sc2c(Br)cccc21', '0 (no)'),
  ('CCC(=O)Nc1ccc(-c2nc(-c3cccc(OC)c3)c(-c3ccnc(Br)c3)[nH]2)cc1', '0 (no)');
